- Test system: Sterol Biosynthesis in L6 Rat Myoblast
- protocolNotes: Sterol biosynthesis in L6 rat myoblast (14C acetic acid into cholesterol)
- Type: cell-based
- conditionDetails: 3 hours pre-incubation, 3 hours 14C acetic acid labeling
pIC50: −log10 of the molar value.

moleculeSmiles: COc1ccc(CNC(=O)c2nc(-c3ccc(F)cc3)n(CC[C@@H](O)C[C@@H](O)CC(=O)O)c2C2CC2)cc1
targetEntity: Sterol Biosynthesis in L6 Rat Myoblast
pIC50: 5.19

moleculeSmiles: CC(C)c1c(C(=O)N2CCN(c3ccc(F)cc3F)CC2)nc(-c2ccc(F)cc2)n1CC[C@@H](O)C[C@@H](O)CC(=O)O
targetEntity: Sterol Biosynthesis in L6 Rat Myoblast
pIC50: 6.80

moleculeSmiles: CC(C)c1c(C(=O)NCc2ccccc2)nc(-c2ccc(F)cc2)n1CC[C@@H](O)C[C@@H](O)CC(=O)O
targetEntity: Sterol Biosynthesis in L6 Rat Myoblast
pIC50: 5.51

moleculeSmiles: O=C(O)C[C@H](O)C[C@H](O)CCn1c(-c2ccc(F)cc2)nc(C(=O)NCc2ccccc2)c1C1CC1
targetEntity: Sterol Biosynthesis in L6 Rat Myoblast
pIC50: 6.20

moleculeSmiles: Cc1cc(CNC(=O)c2nc(-c3ccc(F)cc3)n(CC[C@@H](O)C[C@@H](O)CC(=O)O)c2C(C)C)no1
targetEntity: Sterol Biosynthesis in L6 Rat Myoblast
pIC50: 6.15

moleculeSmiles: CN(Cc1ccccc1)C(=O)c1nc(-c2ccc(F)cc2)n(CC[C@@H](O)C[C@@H](O)CC(=O)O)c1C1CC1
targetEntity: Sterol Biosynthesis in L6 Rat Myoblast
pIC50: 4.13
